Below, each entry is listed with its recorded mass density.
- conditions: 307.65 K; 101.33 kPa; Liquid; Vibrating tube method
property label: mass density (kg/m3)

INSERT INTO results (molecule, data_value) VALUES
  ('C[NH2+]CCO.O=C[O-] [2-hydroxy-N-methylethanaminium formate]', 1122.94),
  ('CC(C)C(=O)[O-].C[NH2+]CCO [2-hydroxy-N-methylethanaminium isobutyrate]', 1037.25),
  ('CCC(=O)[O-].C[NH2+]CCO [2-hydroxy-N-methylethanaminium propionate]', 1065.12),
  ('CCCCC(=O)[O-].C[NH2+]CCO [2-hydroxy-N-methylethanaminium pentanoate]', 1009.85),
  ('CC(=O)[O-].C[NH2+]CCO [N-methyl-2-hydroxyethylammonium acetate]', 1095.14),
  ('CCCC(=O)[O-].C[NH2+]CCO [N-methyl-2-hydroxyethylammonium butanoate]', 1032.87);
